B1: PhoQ; a variant is named by its letters at X, in order, P23837 (parent)
chain: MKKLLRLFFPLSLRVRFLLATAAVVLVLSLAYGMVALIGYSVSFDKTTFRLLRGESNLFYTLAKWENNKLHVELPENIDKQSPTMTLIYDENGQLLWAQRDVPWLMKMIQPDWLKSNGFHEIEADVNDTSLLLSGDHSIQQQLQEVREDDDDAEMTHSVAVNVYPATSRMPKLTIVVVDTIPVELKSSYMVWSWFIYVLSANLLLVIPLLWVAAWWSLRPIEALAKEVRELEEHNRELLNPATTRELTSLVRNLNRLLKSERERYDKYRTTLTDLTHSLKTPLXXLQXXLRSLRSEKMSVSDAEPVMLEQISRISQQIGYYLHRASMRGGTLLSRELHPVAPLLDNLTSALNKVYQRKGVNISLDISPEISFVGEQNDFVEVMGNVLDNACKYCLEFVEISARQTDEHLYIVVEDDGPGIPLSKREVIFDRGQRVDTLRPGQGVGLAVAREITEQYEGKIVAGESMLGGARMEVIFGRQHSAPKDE

# Variants of: B1
# experimentNotes: enrichment ratio after two sorts for PhoP signalling (ratio (wild type AVST 3.29)); higher = more functional
# statedConditions: with PhoP (E. coli)
Over roughly 140,000 sequences, “enrichment ratio after two sorts for PhoP signalling” has its median near 0; the highest 2% begin near 11. Many of the other results were omitted from the sample, so the highest values are more common in it than they were.
Would you mind telling me the reported enrichment ratio of each entry?
Answers are plain numbers.

SETW ... 3.01
SGLM ... 17.9
AFSM ... 0.932
SETI ... 19.9
SETY ... 15
SATY ... 12.7
SETA ... 10.5
SETH ... 15.6

I need enrichment ratio for every entry listed below, if you could help.
1. METM
2. SSTY
3. SETM

## Result
1: 4.44; 2: 11.3; 3: 18.3

Can you give me enrichment ratio for all of these, one by one?
1. SEEC
2. NGLM
3. METY
4. SETG

## Result
[15.4, 13.2, 3.22, 9.95]
